Please respond with reported Activity for every item in the list.
- System: MCF7
- PROCEDURE_SUMMARY: Cell cycle arrest in human MCF7 cells assessed as accumulation at G2/M phase at 10 uM after 24 hrs by propidium iodide staining-based flow cytometric analysis (reference value: 5.3%)
- Assay type: functional
Write it as a number; the unit % goes unstated.

IN: Read off the recorded Activity for c1ccc(-n2cc3cnc(-c4ccsc4)cc3n2)cc1
OUT: 31.4

IN: Read off the recorded Activity for c1ccc(-c2cc3nn(-c4ccccc4)cc3cn2)cc1
OUT: 17

IN: Read off the recorded Activity for CCCCCc1cc2nn(-c3ccccc3)cc2cn1
OUT: 55.6

IN: Read off the recorded Activity for CCCCc1cc2nn(-c3ccccc3)cc2cn1
OUT: 33.7

IN: Read off the recorded Activity for CCCCCc1cc2nn(-c3ccccc3)cc2c(C)n1
OUT: 31.7

IN: Read off the recorded Activity for c1ccc(-n2cc3cnc(C4CC4)cc3n2)cc1
OUT: 5.9

IN: Read off the recorded Activity for CC(C)c1nc(-c2ccccc2)cc2nn(-c3ccccc3)cc12
OUT: 6.9

IN: Read off the recorded Activity for CCCCc1cc2nn(-c3ccccc3)cc2c(C)n1
OUT: 27.5

IN: Read off the recorded Activity for Cc1nc(C2CC2)cc2nn(-c3ccccc3)cc12
OUT: 6.3

IN: Read off the recorded Activity for CCCCc1cc2nn(-c3ccccc3)cc2c(C(C)C)n1
OUT: 9.4

IN: Read off the recorded Activity for Cc1nc(-c2ccccc2)cc2nn(-c3ccccc3)cc12
OUT: 14.1

IN: Read off the recorded Activity for Cc1nc(-c2ccsc2)cc2nn(-c3ccccc3)cc12
OUT: 31.6

The measurements presented in this section are drawn from ChEMBL document CHEMBL4229372.
